- Organism: Homo sapiens
- protocol: Selectivity index, ratio of IC50 for recombinant human MAO-A to IC50 for recombinant human MAO-B
Examples of compounds with documented Selectivity Index follow.
outcomeMeasure: Selectivity Index

structure: CCN(CCCCCCOc1ccc(C(=O)/C=C/c2ccc(N(C)C)cc2)c(O)c1)Cc1ccc(N(C)C)cc1
result: 23.3
--
structure: CCN(CCCOc1ccc(C(=O)/C=C/c2ccc(N(C)C)cc2)c(O)c1)Cc1ccc(N(C)C)cc1
result: 4.2
--
structure: CCN(CCCCCCOc1ccc(C(=O)/C=C/c2ccc(N(C)C)cc2)c(O)c1)Cc1ccccc1N(C)C
result: 18
--
structure: CCN(CC)CCCOc1ccc(C(=O)/C=C/c2ccc(N(C)C)cc2)c(O)c1
result: 11.5
--
structure: CCN(CCCCCCOc1ccc(C(=O)/C=C/c2ccc(N(C)C)cc2)c(O)c1)Cc1ccccc1OC
result: 77.6

----------
- tgt: Acetylcholinesterase (Electrophorus electricus, UniProt O42275)
- Sequence (O42275 whole entry): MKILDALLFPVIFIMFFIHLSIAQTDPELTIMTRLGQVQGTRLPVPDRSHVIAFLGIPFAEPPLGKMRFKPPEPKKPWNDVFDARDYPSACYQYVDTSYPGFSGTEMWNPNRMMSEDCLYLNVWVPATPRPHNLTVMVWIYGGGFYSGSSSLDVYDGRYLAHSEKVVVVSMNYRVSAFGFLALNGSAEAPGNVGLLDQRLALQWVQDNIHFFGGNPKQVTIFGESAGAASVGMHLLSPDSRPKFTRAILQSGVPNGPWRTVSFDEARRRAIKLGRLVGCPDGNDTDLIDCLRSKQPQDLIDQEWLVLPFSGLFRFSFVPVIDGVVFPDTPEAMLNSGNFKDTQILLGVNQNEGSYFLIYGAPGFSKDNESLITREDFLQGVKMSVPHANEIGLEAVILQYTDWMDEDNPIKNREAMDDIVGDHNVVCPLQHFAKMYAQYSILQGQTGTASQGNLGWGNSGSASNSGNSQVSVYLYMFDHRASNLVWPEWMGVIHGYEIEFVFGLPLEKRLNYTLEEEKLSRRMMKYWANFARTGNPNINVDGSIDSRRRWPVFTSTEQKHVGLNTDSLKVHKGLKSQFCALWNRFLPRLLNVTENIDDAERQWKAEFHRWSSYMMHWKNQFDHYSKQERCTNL

structure: CCN(CCCCOc1ccc(C(=O)/C=C/c2ccc(N(C)C)cc2)c(O)c1)Cc1ccccc1N(C)C
resultUnit: nM
Ki: 500

----------
- tgt: Amyloid-beta precursor protein (Homo sapiens)
- protocol: Inhibition of self-induced amyloid beta (1 to 42) (unknown origin) aggregation by T-fluorescence assay relative to control
- cond: read-out: IC50
Mark each entry YES if its IC50 sits below 2 µM, and NO for all others.

structure: CCN(CCCCCCOc1ccc(C(=O)/C=C/c2ccc(N(C)C)cc2)c(O)c1)Cc1ccccc1
assignedClass: NO

structure: CCN(CCCCCCOc1ccc(C(=O)/C=C/c2ccc(N(C)C)cc2)c(O)c1)Cc1ccccc1OC
assignedClass: YES

structure: CCN(CCCCOc1ccc(C(=O)/C=C/c2ccc(N(C)C)cc2)c(O)c1)Cc1ccccc1
assignedClass: NO

structure: CCN(CCCOc1ccc(C(=O)/C=C/c2ccc(N(C)C)cc2)c(O)c1)Cc1ccccc1OC
assignedClass: NO

structure: CCN(CCCCOc1ccc(C(=O)/C=C/c2ccc(N(C)C)cc2)c(O)c1)Cc1ccccc1N(C)C
assignedClass: YES

structure: CCN(CCCOc1ccc(C(=O)/C=C/c2ccc(N(C)C)cc2)c(O)c1)Cc1ccc(N(C)C)cc1
assignedClass: YES

structure: CCN(CCCCCCOc1ccc(C(=O)/C=C/c2ccc(N(C)C)cc2)c(O)c1)Cc1ccc(N(C)C)cc1
assignedClass: YES

structure: CCN(CCCCOc1ccc(C(=O)/C=C/c2ccc(N(C)C)cc2)c(O)c1)Cc1ccccc1OC
assignedClass: YES

structure: CCN(CCCCOc1ccc(C(=O)/C=C/c2ccc(N(C)C)cc2)c(O)c1)Cc1ccc(N(C)C)cc1
assignedClass: NO

structure: CCN(CCCOc1ccc(C(=O)/C=C/c2ccc(N(C)C)cc2)c(O)c1)Cc1ccccc1
assignedClass: YES

structure: CCN(CCCCCCOc1ccc(C(=O)/C=C/c2ccc(N(C)C)cc2)c(O)c1)Cc1ccccc1N(C)C
assignedClass: YES

structure: CCN(CCCOc1ccc(C(=O)/C=C/c2ccc(N(C)C)cc2)c(O)c1)Cc1ccccc1N(C)C
assignedClass: YES

----------
- tgt: Acetylcholinesterase (Electrophorus electricus)
- protocol: Inhibition of electric eel AChE using acetylthiocholine iodide as substrate by Ellman's method
pIC50: −log10 of the molar value.

structure: COc1ccc(C(=O)/C=C/c2ccc(N(C)C)cc2)c(O)c1
valueOperator: <
pIC50: 3.30
--
structure: CCN(CCCCCCOc1ccc(C(=O)/C=C/c2ccc(N(C)C)cc2)c(O)c1)Cc1ccccc1
valueOperator: =
pIC50: 5.44
--
structure: CCN(CCCCOc1ccc(C(=O)/C=C/c2ccc(N(C)C)cc2)c(O)c1)Cc1ccccc1OC
valueOperator: =
pIC50: 5.39
--
structure: COc1ccc(/C=C/C(=O)c2ccc(N(C)C)cc2O)cc1
valueOperator: <
pIC50: 3.30
--
structure: CCN(CCCCCCOc1ccc(C(=O)/C=C/c2ccc(N(C)C)cc2)c(O)c1)Cc1ccccc1OC
valueOperator: =
pIC50: 5.29
--
structure: CCN(CCCOc1ccc(C(=O)/C=C/c2ccc(N(C)C)cc2)c(O)c1)Cc1ccccc1OC
valueOperator: =
pIC50: 5.28
--
structure: CCN(CCCOc1ccc(C(=O)/C=C/c2ccccc2)c(O)c1)Cc1ccccc1N(C)C
valueOperator: =
pIC50: 5.70
--
structure: CN(C)c1ccc(/C=C/C(=O)c2ccc(N(C)C)cc2O)cc1
valueOperator: <
pIC50: 3.30
--
structure: CCN(CCCCCCOc1ccc(C(=O)/C=C/c2ccc(N(C)C)cc2)c(O)c1)Cc1ccc(N(C)C)cc1
valueOperator: =
pIC50: 5.10
--
structure: CCN(CCCCOc1ccc(/C=C/C(=O)c2ccc(N(C)C)cc2O)cc1)Cc1ccccc1OC
valueOperator: =
pIC50: 5.79

----------
- tgt: Amyloid-beta precursor protein (Homo sapiens, UniProt P05067)
- Sequence (P05067 whole entry, the tested form may be a part): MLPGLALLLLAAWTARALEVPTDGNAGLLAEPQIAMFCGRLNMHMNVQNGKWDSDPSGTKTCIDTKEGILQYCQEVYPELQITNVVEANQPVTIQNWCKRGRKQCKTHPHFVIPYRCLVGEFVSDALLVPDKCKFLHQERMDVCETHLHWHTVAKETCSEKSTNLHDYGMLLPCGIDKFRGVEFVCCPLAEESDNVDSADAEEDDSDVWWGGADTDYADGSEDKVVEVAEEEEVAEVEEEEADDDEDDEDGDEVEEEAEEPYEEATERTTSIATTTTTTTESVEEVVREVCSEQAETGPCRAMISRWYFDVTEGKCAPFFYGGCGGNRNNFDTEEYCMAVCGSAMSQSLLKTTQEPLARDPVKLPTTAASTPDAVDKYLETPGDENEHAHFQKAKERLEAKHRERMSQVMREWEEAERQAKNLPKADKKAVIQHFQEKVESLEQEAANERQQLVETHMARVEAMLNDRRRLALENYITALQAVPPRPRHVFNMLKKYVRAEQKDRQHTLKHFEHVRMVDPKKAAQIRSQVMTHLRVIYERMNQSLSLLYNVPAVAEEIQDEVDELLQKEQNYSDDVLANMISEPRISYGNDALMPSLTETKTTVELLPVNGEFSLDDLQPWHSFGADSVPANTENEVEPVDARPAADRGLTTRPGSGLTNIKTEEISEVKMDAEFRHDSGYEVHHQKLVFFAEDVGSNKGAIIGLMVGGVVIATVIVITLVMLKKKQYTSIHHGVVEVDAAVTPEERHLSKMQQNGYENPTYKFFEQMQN
- protocol: Disaggregation of Cu2+ induced amyloid beta (1 to 42 residues) (unknown origin) aggregation at 25 uM by thioflavin-T fluorescence method relative to control
Mark each entry 1 if its Activity sits below 80%, and 0 for all others.

structure: CCN(CCCOc1ccc(C(=O)/C=C/c2ccc(N(C)C)cc2)c(O)c1)Cc1ccccc1OC
tgt: Amyloid-beta precursor protein (Homo sapiens, UniProt P05067)
assignedClass: 1
//
structure: CCN(CCCOc1ccc(C(=O)/C=C/c2ccc(N(C)C)cc2)c(O)c1)Cc1ccccc1N(C)C
tgt: Amyloid-beta precursor protein (Homo sapiens, UniProt P05067)
assignedClass: 0
//
structure: CCN(CCCCOc1ccc(C(=O)/C=C/c2ccc(N(C)C)cc2)c(O)c1)Cc1ccccc1N(C)C
tgt: Amyloid-beta precursor protein (Homo sapiens, UniProt P05067)
assignedClass: 0
//
structure: CCN(CCCOc1ccc(C(=O)/C=C/c2ccc(N(C)C)cc2)c(O)c1)Cc1ccc(N(C)C)cc1
tgt: Amyloid-beta precursor protein (Homo sapiens, UniProt P05067)
assignedClass: 1
//
structure: CCN(CCCOc1ccc(C(=O)/C=C/c2ccc(N(C)C)cc2)c(O)c1)Cc1ccccc1
tgt: Amyloid-beta precursor protein (Homo sapiens, UniProt P05067)
assignedClass: 1
//
structure: CCN(CCCCOc1ccc(C(=O)/C=C/c2ccc(N(C)C)cc2)c(O)c1)Cc1ccccc1OC
tgt: Amyloid-beta precursor protein (Homo sapiens, UniProt P05067)
assignedClass: 1
//
structure: CCN(CCCCCCOc1ccc(C(=O)/C=C/c2ccc(N(C)C)cc2)c(O)c1)Cc1ccccc1
tgt: Amyloid-beta precursor protein (Homo sapiens, UniProt P05067)
assignedClass: 0
//
structure: CCN(CCCCCCOc1ccc(C(=O)/C=C/c2ccc(N(C)C)cc2)c(O)c1)Cc1ccc(N(C)C)cc1
tgt: Amyloid-beta precursor protein (Homo sapiens, UniProt P05067)
assignedClass: 0
//
structure: CCN(CCCCCCOc1ccc(C(=O)/C=C/c2ccc(N(C)C)cc2)c(O)c1)Cc1ccccc1OC
tgt: Amyloid-beta precursor protein (Homo sapiens, UniProt P05067)
assignedClass: 0
//
structure: CCN(CCCCCCOc1ccc(C(=O)/C=C/c2ccc(N(C)C)cc2)c(O)c1)Cc1ccccc1N(C)C
tgt: Amyloid-beta precursor protein (Homo sapiens, UniProt P05067)
assignedClass: 0

----------
- tgt: Amyloid-beta precursor protein (Homo sapiens)
- protocol: Inhibition of Cu2+ induced amyloid beta (1 to 42 residues) (unknown origin) aggregation at 25 uM by thioflavin-T fluorescence method relative to control
Examples of compounds with documented inhibition follow.

structure: CCN(CCCOc1ccc(C(=O)/C=C/c2ccc(N(C)C)cc2)c(O)c1)Cc1ccccc1
tgt: Amyloid-beta precursor protein (Homo sapiens)
inhibition, %: 91.9
--
structure: CCN(CCCCCCOc1ccc(C(=O)/C=C/c2ccc(N(C)C)cc2)c(O)c1)Cc1ccccc1N(C)C
tgt: Amyloid-beta precursor protein (Homo sapiens)
inhibition, %: 96.5
--
structure: CCN(CCCOc1ccc(C(=O)/C=C/c2ccc(N(C)C)cc2)c(O)c1)Cc1ccc(N(C)C)cc1
tgt: Amyloid-beta precursor protein (Homo sapiens)
inhibition, %: 95
--
structure: CCN(CCCCOc1ccc(C(=O)/C=C/c2ccc(N(C)C)cc2)c(O)c1)Cc1ccccc1OC
tgt: Amyloid-beta precursor protein (Homo sapiens)
inhibition, %: 91.9
--
structure: CCN(CCCOc1ccc(C(=O)/C=C/c2ccc(N(C)C)cc2)c(O)c1)Cc1ccccc1OC
tgt: Amyloid-beta precursor protein (Homo sapiens)
inhibition, %: 95.2
--
structure: CCN(CCCCCCOc1ccc(C(=O)/C=C/c2ccc(N(C)C)cc2)c(O)c1)Cc1ccc(N(C)C)cc1
tgt: Amyloid-beta precursor protein (Homo sapiens)
inhibition, %: 95.6
--
structure: CCN(CCCCOc1ccc(C(=O)/C=C/c2ccc(N(C)C)cc2)c(O)c1)Cc1ccccc1
tgt: Amyloid-beta precursor protein (Homo sapiens)
inhibition, %: 93.9
--
structure: CCN(CCCCOc1ccc(C(=O)/C=C/c2ccc(N(C)C)cc2)c(O)c1)Cc1ccccc1N(C)C
tgt: Amyloid-beta precursor protein (Homo sapiens)
inhibition, %: 95.3
--
structure: CCN(CCCCCCOc1ccc(C(=O)/C=C/c2ccc(N(C)C)cc2)c(O)c1)Cc1ccccc1
tgt: Amyloid-beta precursor protein (Homo sapiens)
inhibition, %: 91
--
structure: CCN(CCCCCCOc1ccc(C(=O)/C=C/c2ccc(N(C)C)cc2)c(O)c1)Cc1ccccc1OC
tgt: Amyloid-beta precursor protein (Homo sapiens)
inhibition, %: 93.2
--
structure: CCN(CCCCOc1ccc(C(=O)/C=C/c2ccc(N(C)C)cc2)c(O)c1)Cc1ccc(N(C)C)cc1
tgt: Amyloid-beta precursor protein (Homo sapiens)
inhibition, %: 91.7
--
structure: CCN(CCCOc1ccc(C(=O)/C=C/c2ccc(N(C)C)cc2)c(O)c1)Cc1ccccc1N(C)C
tgt: Amyloid-beta precursor protein (Homo sapiens)
inhibition, %: 94.8
